Target: D2S receptor (Homo sapiens)
Construct: expressed in transfected cells
Sequence (P14416 1-414 isoform P14416-2): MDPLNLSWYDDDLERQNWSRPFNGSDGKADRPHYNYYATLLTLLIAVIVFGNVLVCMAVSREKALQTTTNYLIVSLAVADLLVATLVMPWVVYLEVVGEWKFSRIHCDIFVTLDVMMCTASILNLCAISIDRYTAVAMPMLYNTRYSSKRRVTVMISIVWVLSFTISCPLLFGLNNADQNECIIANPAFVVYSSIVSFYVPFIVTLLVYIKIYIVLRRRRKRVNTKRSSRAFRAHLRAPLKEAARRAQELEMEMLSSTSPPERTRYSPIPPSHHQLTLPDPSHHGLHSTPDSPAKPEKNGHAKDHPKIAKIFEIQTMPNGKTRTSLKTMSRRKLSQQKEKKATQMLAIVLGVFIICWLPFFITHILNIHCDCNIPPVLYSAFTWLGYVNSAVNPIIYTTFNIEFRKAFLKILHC
Assay: D2S receptor cAMP agonist test
Assay type: cell-based
Details: HEK293 cell strain stably expressing D2S receptor; positive control dopamine 1×10^−7 M
readout-type: D2S Max Act % (%)
Reply with just the number (in %).

Example entries begin here.
[[record]]
molecule = "O=C1Nc2cc(OCCCCN3CCN(c4cccc5ccsc45)CC3)ccc2C2CC12 (centres unmarked)"
assayed_system = "D2S receptor (Homo sapiens)"
unit_name = "%"
obs_value = 114.8

[[record]]
molecule = "O=C1Nc2cc(OCCCCN3CCN(c4cccc5sccc45)CC3)ccc2C2CC12 (single isomer, unassigned) [Example 42-P2]"
assayed_system = "D2S receptor (Homo sapiens)"
unit_name = "%"
obs_value = 99.2

[[record]]
molecule = "O=C1Nc2cc(OCCCCN3CCN(c4cccc(Cl)c4Cl)CC3)ccc2[C@@H]2C[C@H]12 (single isomer, unassigned) [Example 1-P2]"
assayed_system = "D2S receptor (Homo sapiens)"
unit_name = "%"
obs_value = 113.8

[[record]]
molecule = "O=C1Nc2cc(OCCCCN3CCN(c4cccc5c4CCO5)CC3)ccc2C2CC12 (centres unmarked) [Example 45]"
assayed_system = "D2S receptor (Homo sapiens)"
unit_name = "%"
obs_value = 105.6

[[record]]
molecule = "O=C1Nc2cc(OCCCCN3CCN(c4cccc(Cl)c4Cl)CC3)ccc2[C@H]2C[C@@H]12 (single isomer, unassigned) [Example 1-P1]"
assayed_system = "D2S receptor (Homo sapiens)"
unit_name = "%"
obs_value = 111.9

[[record]]
molecule = "O=C1Nc2cc(OCCCCN3CCN(c4cccc5sc(Cl)cc45)CC3)ccc2C2CC12 (centres unmarked)"
assayed_system = "D2S receptor (Homo sapiens)"
unit_name = "%"
obs_value = 112.6

[[record]]
molecule = "O=C1Nc2cc(OCCCCN3CCN(c4cccc5sccc45)CC3)ccc2C2CC12 (centres unmarked) [Example 42]"
assayed_system = "D2S receptor (Homo sapiens)"
unit_name = "%"
obs_value = 106.0

[[record]]
molecule = "O=C1Nc2cc(OCCCCN3CCN(c4cccc5c4CCC5)CC3)ccc2C2CC12 (single isomer, unassigned) [Example 43-P2]"
assayed_system = "D2S receptor (Homo sapiens)"
unit_name = "%"
obs_value = 125.3


Fill in: D2S Max Act % of O=C1Nc2cc(OCCCCN3CCN(c4cccc5c4CC(F)(F)C5)CC3)ccc2C2CC12 (centres unmarked) is ___
114.3

GET /values?readout=D2S Max Act %&item= O=C1Nc2cc(OCCCCN3CCN(c4cccc5c4CCO5)CC3)ccc2C2CC12 (single isomer, unassigned) [Example 45-P1]
106.1

What does the data say about its D2S Max Act %? Entry: O=C1Nc2cc(OCCCCN3CCN(c4ccc(Cl)s4)CC3)ccc2C2CC12 (centres unmarked)
111.1

Look up D2S Max Act %: O=C1Nc2cc(OCCCCN3CCN(c4cccc5c4OCC5)CC3)ccc2C2CC12 (single isomer, unassigned) [Example 44-P2]
89.1

What value of D2S Max Act % has been reported for the following molecule? O=C1Nc2cc(OCCCCN3CCN(c4cccc5c4CCO5)CC3)ccc2C2CC12 (single isomer, unassigned) [Example 45-P2]
111.5

====

Molecular target: UniProtKB P28223
Sequence (P28223 whole entry): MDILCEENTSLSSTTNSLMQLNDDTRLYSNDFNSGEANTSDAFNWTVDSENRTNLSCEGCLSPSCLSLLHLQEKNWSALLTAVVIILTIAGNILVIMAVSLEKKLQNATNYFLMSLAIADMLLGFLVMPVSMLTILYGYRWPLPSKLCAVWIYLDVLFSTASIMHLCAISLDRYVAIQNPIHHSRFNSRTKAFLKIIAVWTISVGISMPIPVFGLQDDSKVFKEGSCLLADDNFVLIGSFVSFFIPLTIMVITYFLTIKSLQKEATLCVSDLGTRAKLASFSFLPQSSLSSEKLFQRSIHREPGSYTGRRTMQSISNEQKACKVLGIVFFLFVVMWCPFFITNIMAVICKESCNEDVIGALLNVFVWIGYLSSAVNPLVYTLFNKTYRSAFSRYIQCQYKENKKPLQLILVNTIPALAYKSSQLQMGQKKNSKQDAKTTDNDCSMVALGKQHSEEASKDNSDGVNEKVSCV
Assay: Calcium flux test for 5-HT2A receptor
Conditions: CHO cell strain stably expressing 5-HT2A receptor; calcium flux, antagonism of serotonin
readout-type: pIC50
# log scale: pIC50 equals minus log10 of the concentration in mol/L

Please review the entries below; each comes with its answer.
[[record]]
compound = "O=C1Nc2cc(OCCCCN3CCN(c4cccc5c4CCO5)CC3)ccc2C2CC12 (centres unmarked) [Example 45]"
assayed_system = "UniProtKB P28223"
obs_value = 6.34

[[record]]
compound = "O=C1Nc2cc(OCCCCN3CCN(c4cccc5c4CCO5)CC3)ccc2C2CC12 (single isomer, unassigned) [Example 45-P1]"
assayed_system = "UniProtKB P28223"
obs_value = 6.40

[[record]]
compound = "O=C1Nc2cc(OCCCCN3CCN(c4cccc5c4CC(F)(F)C5=O)CC3)ccc2C2CC12 (centres unmarked) [Example 47]"
assayed_system = "UniProtKB P28223"
obs_value = 6.57

[[record]]
compound = "O=C1Nc2cc(OCCCCN3CCN(c4cccc(Cl)c4Cl)CC3)ccc2[C@H]2C[C@@H]12 (single isomer, unassigned) [Example 1-P1]"
assayed_system = "UniProtKB P28223"
obs_value = 6.13

[[record]]
compound = "O=C1Nc2cc(OCCCCN3CCN(c4cccc5c4OCC5)CC3)ccc2C2CC12 (centres unmarked) [Example 44]"
assayed_system = "UniProtKB P28223"
obs_value = 6.58

[[record]]
compound = "O=C1Nc2cc(OCCCCN3CCN(c4cccc5c4OC(F)(F)O5)CC3)ccc2C2CC12 (centres unmarked) [Example 41]"
assayed_system = "UniProtKB P28223"
obs_value = 5.48

[[record]]
compound = "O=C1Nc2cc(OCCCCN3CCN(c4cccc5c4CCC5)CC3)ccc2C2CC12 (single isomer, unassigned) [Example 43-P1]"
assayed_system = "UniProtKB P28223"
obs_value = 6.07

[[record]]
compound = "O=C1Nc2cc(OCCCCN3CCN(c4cccc(O)c4Cl)CC3)ccc2C2CC12 (centres unmarked) [Example 38]"
assayed_system = "UniProtKB P28223"
obs_value = 5.31

[[record]]
compound = "O=C1COc2ccc(OCCCCN3CCN(c4cccc(Cl)c4Cl)CC3)cc2N1 [RP5063, reference compound]"
assayed_system = "UniProtKB P28223"
obs_value = 5.04

[[record]]
compound = "O=C1Nc2cc(OCCCCN3CCN(c4cccc5c4CCC5)CC3)ccc2C2CC12 (single isomer, unassigned) [Example 43-P2]"
assayed_system = "UniProtKB P28223"
obs_value = 5.95


Shifting focus to the compound that follows.
// query pIC50 value for entry O=C1Nc2cc(OCCCCN3CCN(c4cccc5[nH]ccc45)CC3)ccc2C2CC12 (centres unmarked) [Example 52]
5.80
